In this section, each of the compounds is paired with its reported %Inh.
tested on: JAK2(JH1domain-catalytic); details: concentration: 1 μM, replicates: in singlicate; n = 1;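 also: KINOMEscan kinase panel screen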
Answer in %, number only, no unit symbol.

Supply %Inh value. Item: Fc1ccc(-c2ncn(C3CCNCC3)c2-c2ccnc(Oc3ccc(-c4ccccc4)cc3)n2)cc1
50

Supply %Inh value. Item: CCS(=O)(=O)c1ccc(OC)c(Nc2nccc(-c3c(-c4cccc(NC(=O)c5c(F)cccc5F)c4)nn4ncccc34)n2)c1
0

Supply %Inh value. Item: COc1ccc(Nc2nccc(NCCNC(=O)c3cc4ccccc4s3)n2)cc1
23

Supply %Inh value. Item: Cl.Cl.NCC(C(=O)Nc1cc(Br)c(-c2ccnc3[nH]ccc23)s1)c1ccccc1 (centres unmarked)
78

Supply %Inh value. Item: Cn1cc(-c2ccc3c(c2)CCN3C(=O)Cc2cccc(F)c2)c2c(N)ncnc21
17

Supply %Inh value. Item: Cl.c1ccc(-c2ccc3c(Nc4ccc5[nH]ccc5c4)ccnc3c2)nc1
24

Supply %Inh value. Item: Cc1ccc(C(=O)Nc2ccc(Nc3ccnc4cc(-c5nccs5)ccc34)cc2O)cc1.Cl
25

Supply %Inh value. Item: O=C(Nc1n[nH]c2cc(-c3ccoc3)ccc12)C1CC1
18

---

In this section, each of the compounds is paired with its reported %Inh.
test system: NEK11; settings: concentration: 1 μM, replicates: in singlicate; n = 1
Answer in %, number only, no unit symbol.

Example entries and their recorded answers appear below.
Compound	Unit Symbol	%Inh
C[C@@H]1CC[C@@H](C(=O)Nc2ccccc2)CN1c1cc(-c2ccc3c(N)n[nH]c3c2)nc(N)n1 [GSK2286062]	%	0
Nc1ncc(-c2ccc3nccc(-c4ccncc4)c3c2)cc1S(=O)(=O)N1CCOCC1 [GSK1627798]	%	0
CCn1c(-c2nonc2N)nc2c(C#CC(C)(C)O)ncc(OCCCCN)c21.O=C(O)C(F)(F)F.O=C(O)C(F)(F)F [GSK507274]	%	50
O=C(Nc1cccc(Oc2ccc3nc(NC(=O)C4CC4)cn3n2)c1)c1ccccc1C(F)(F)F	%	0
COC(=O)Nc1nc2cc(Oc3ccc(NC(=O)Nc4cc(C(F)(F)F)ccc4F)cn3)ccc2[nH]1.Cl.Cl [GW681170]	%	34
Fc1ccc(-c2ncn(C3CCNCC3)c2-c2ccnc(Oc3ccc(-c4ccccc4)cc3)n2)cc1 [SB-245391]	%	24
Cl.Cl.NCC(NC(=O)c1cc(-c2ccccc2)c(-c2ccnc3[nH]ccc23)s1)c1ccccc1 (centres unmarked) [GSK1321561]	%	6

Please find the next compound below.
Supply %Inh value. Item: CCc1ccc(-c2ccc3c(c2)-c2c(cnn2C)S(=O)(=O)N3C)cc1
0

---

tested on: RIPK1; details: concentration: 1 μM, replicates: in singlicate; n = 1
Endpoint Name: %Inh (%)
Answer in %, number only, no unit symbol.

Example entries and their recorded answers appear below.
Compound	Endpoint Name	Value Measured
CN1CCN(CCCNc2nccc(-c3c(-c4ccc(F)cc4)nn4cc(C(F)(F)F)ccc34)n2)CC1	%Inh	0
Cl.Cl.NCC(NC(=O)c1cc(-c2ccccc2)c(-c2ccnc3[nH]ccc23)s1)c1ccccc1 (stereo not shown)	%Inh	24
Cl.c1ccc(-c2ccc3c(Nc4ccc5[nH]ncc5c4)ccnc3c2)nc1	%Inh	6
Nc1ncc(-c2ccc3nccc(-c4ccncc4)c3c2)cc1S(=O)(=O)N1CCOCC1	%Inh	0
Cc1occc1-c1ncc(OC[C@@H](N)Cc2c[nH]c3ccccc23)cc1-c1ccc2[nH]nc(C)c2c1.O=C(O)C(F)(F)F	%Inh	0

Please find the next compound below.
Would you please give the reported %Inh of COc1cccc(-c2ccc3c(NC(=O)C4CC4)n[nH]c3n2)c1 with RIPK1?
99.5

---

In this section, each of the molecules is paired with its reported %Inh.
tested on: AKT3; details: concentration: 1 μM, replicates: in singlicate; n = 1
Answer in %, number only, no unit symbol.

C[C@@H](Oc1cc(-n2cnc3cc(-c4ccnc(NCCS(C)(=O)=O)c4)ccc32)sc1C(N)=O)c1ccccc1Cl 0
CN(c1ccc(NC(=O)Nc2cc(C(F)(F)F)ccc2F)cc1)c1ccnc(Nc2ccc(S(N)(=O)=O)cc2)n1 9
c1ccc(-c2cnc3nccnn23)cc1 0
COc1cc(Nc2nccc(-c3c(-c4cccc(NC(=O)c5c(F)cccc5F)c4)nn4ccccc34)n2)cc(OC)c1OC 5
Cc1cccc(NC(=O)Nc2ccc(Oc3ncnc4ccn(C)c34)cc2)c1 0

Supply %Inh value. Item: COC(=O)Nc1nc2cc(Oc3ccc(NC(=O)Nc4cc(C(F)(F)F)ccc4F)cn3)ccc2[nH]1.Cl.Cl
0

Supply %Inh value. Item: Nc1ncc(-c2ccc3nccc(-c4ccncc4)c3c2)cc1S(=O)(=O)N1CCOCC1
0

Supply %Inh value. Item: FC(F)(F)c1ccc(/C=C/c2cncnc2Nc2ccc3[nH]c(Cc4ccccc4)nc3c2)cc1
0

---

tested on: PIM3; details: concentration: 1 μM, replicates: in singlicate; n = 1
Endpoint Name: %Inh (%)
Answer in %, number only, no unit symbol.

Example entries and their recorded answers appear below.
CCn1c(-c2nonc2N)nc2c(C#CC(C)(C)O)nc(OC[C@H](N)c3ccccc3)cc21 0
Cl.NC(=O)c1cccc(Nc2nccc(Nc3ccc(Oc4c(Cl)cccc4Cl)c(Cl)c3)n2)c1 4
O=C(Nc1cccc(-c2nn3ccccc3c2-c2ccnc(Nc3cccc(C(F)(F)F)c3)n2)c1)c1c(F)cccc1F 0
CCc1ccc(-c2ccc3c(c2)-c2c(cnn2C)S(=O)(=O)N3C)cc1 0

Please find the next compound below.
Supply %Inh value. Item: O=c1[nH]cc(-c2ccc(N3CCOCC3)cc2)c2sc(-c3cn[nH]c3)cc12
67

---

system: MEK5; construct: gene MAP2K5; settings: concentration: 1 μM, replicates: in singlicate; n = 1
Endpoint Name: %Inh

Molecule	%Inh
Cc1cccc(NC(=O)Nc2ccc(Oc3ncnc4ccn(C)c34)cc2)c1	25%
COc1cc(Nc2nccc(N3CCC(NC(=O)c4cc5ccccc5s4)C3)n2)cc(OC)c1OC (stereo not shown)	88%
Cn1cc(-c2[nH]c3cc(NC(=O)[C@H](N)C4CCCCC4)cc4c3c2C=NNC4=O)cn1	100%

Supply %Inh value. Item: COc1ccc(CNC(=O)NC2CCN(c3ccnc(Nc4ccc(F)cc4)n3)CC2)cc1
9%

---

test system: MEK3; construct: gene MAP2K3; conditions: concentration: 1 μM, replicates: in singlicate; n = 1
In this section, each of the compounds is paired with its reported %Inh.
Answer in %, number only, no unit symbol.

Compound	Endpoint Name	Value Measured
CCS(=O)(=O)c1ccc(OC)c(Nc2nccc(-c3c(-c4cccc(NC(=O)c5c(F)cccc5F)c4)nn4ncccc34)n2)c1	%Inh	2
COc1ccc(-c2coc3ccc(-c4nnc(SCc5ccc(OC)c(C(F)(F)F)c5)o4)cc23)cc1	%Inh	10
Nc1ncc(-c2cccnc2)c2scc(-c3ccc4c(c3)CCN4C(=O)Cc3ccccc3)c12	%Inh	0
O=C(NC1CCN(c2ccnc(Nc3ccc(F)cc3)n2)C1)c1cc2ccccc2s1 (centres unmarked)	%Inh	0
Cc1cccc(Nc2nc(N[C@H]3CCNC3)ncc2C(N)=O)c1.Cl	%Inh	85

Supply %Inh value. Item: CC(C)c1nc(-c2cccc(NS(=O)(=O)c3c(F)cccc3F)c2F)c(-c2ccnc(Nc3ccc(N4CCOCC4)nc3)n2)s1
57

Supply %Inh value. Item: Cc1occc1-c1ncc(OC[C@@H](N)Cc2c[nH]c3ccccc23)cc1-c1ccc2[nH]nc(C)c2c1.O=C(O)C(F)(F)F
90.7

Supply %Inh value. Item: CCc1ccc(-c2ccc3c(c2)-c2c(cnn2C)S(=O)(=O)N3C)cc1
0

Supply %Inh value. Item: COc1cc2c(cc1OCCN1CCNCC1)ncc1c3ccc(C#N)cc3[nH]c21
34

---

In this section, each of the compounds is paired with its reported %Inh.
system: MST1; construct: gene STK4; conditions: concentration: 1 μM, replicates: in singlicate; n = 1
Answer in %, number only, no unit symbol.

Example entries and their recorded answers appear below.
Compound	Unit Symbol	Value Measured
O=C(NC1CCN(c2ccnc(Nc3ccc(F)cc3)n2)C1)c1cc2ccccc2s1 (stereo not shown)	%	9
O=C(Nc1cccc(-c2nn3ccccc3c2-c2ccnc(Nc3cccc(F)c3)n2)c1)c1c(F)ccc(F)c1Cl	%	25
CCn1c(-c2nonc2N)nc2c(C#CC(C)(C)O)ncc(OCCCCN)c21.O=C(O)C(F)(F)F.O=C(O)C(F)(F)F	%	3

Supply %Inh value. Item: Cn1cc(-c2[nH]c3cc(NC(=O)[C@H](N)C4CCCCC4)cc4c3c2C=NNC4=O)cn1
27

---

In this section, each of the compounds is paired with its reported %Inh.
test system: IGF1R; conditions: concentration: 1 μM, replicates: in singlicate; n = 1
Answer in %, number only, no unit symbol.

Example entries and their recorded answers appear below.
Compound	Target Of Assay	%Inh / %
CCn1c(-c2nonc2N)nc2c(C#CC(C)(C)O)ncc(OCCCCN)c21.O=C(O)C(F)(F)F.O=C(O)C(F)(F)F [GSK507274]	IGF1R	12
Fc1ccc(-c2ncn(C3CCNCC3)c2-c2ccnc(Oc3ccc(-c4ccccc4)cc3)n2)cc1 [SB-245391]	IGF1R	48
COc1cc(Nc2nccc(-c3c(-c4cccc(NC(=O)c5c(F)cccc5F)c4)nn4ncccc34)n2)cc(OC)c1OC [GSK327238]	IGF1R	95.8

Supply %Inh value. Item: Cn1cc(-c2[nH]c3cc(NC(=O)[C@H](N)C4CCCCC4)cc4c3c2C=NNC4=O)cn1
0

Supply %Inh value. Item: Cc1ccc(F)c(C(=O)Nc2cccc(-c3nn4ccccc4c3-c3ccnc(Nc4cccc(F)c4)n3)c2)c1F [GSK361061]
41

Supply %Inh value. Item: CC(C)(C)c1ccc2nccc(Nc3cccc(O)c3)c2c1 [GW856795]
0

Supply %Inh value. Item: CCc1ccc(-c2ccc3c(c2)-c2c(cnn2C)S(=O)(=O)N3C)cc1
4

Supply %Inh value. Item: Nc1ncc(-c2cccnc2)c2scc(-c3ccc4c(c3)CCN4C(=O)Cc3ccccc3)c12 [GSK683281]
0

Supply %Inh value. Item: c1ccc(-c2cnc3nccnn23)cc1 [AH20685]
31

Supply %Inh value. Item: Cc1ccc(C(=O)Nc2ccc(Nc3ccnc4cc(-c5nccs5)ccc34)cc2O)cc1.Cl [GW494702]
0

Supply %Inh value. Item: CN1CCN(CCCNc2nccc(-c3c(-c4ccc(F)cc4)nn4cc(C(F)(F)F)ccc34)n2)CC1 [GW621581]
0

Supply %Inh value. Item: O=C(Nc1cccc(Oc2ccc3nc(NC(=O)C4CC4)cn3n2)c1)c1ccccc1C(F)(F)F
0

Supply %Inh value. Item: COc1ccc(-c2coc3ccc(-c4nnc(SCc5ccc(OC)c(C(F)(F)F)c5)o4)cc23)cc1
12

Supply %Inh value. Item: C[C@@H](Oc1cc(-n2cnc3cc(-c4ccnc(NCCS(C)(=O)=O)c4)ccc32)sc1C(N)=O)c1ccccc1Cl [GSK907232]
0

Supply %Inh value. Item: O=c1[nH]cc(-c2ccc(N3CCOCC3)cc2)c2sc(-c3cn[nH]c3)cc12 [GSK2276055]
0

Supply %Inh value. Item: Cl.c1ccc(-c2ccc3c(Nc4ccc5[nH]ccc5c4)ccnc3c2)nc1 [GW440138]
40

Supply %Inh value. Item: O=C(O)C(F)(F)F.O=C(O)C(F)(F)F.O=c1[nH]ccc2nc(N[C@@H]3CCCNC3)nc(Nc3ccc(S(=O)(=O)N4CCOCC4)cc3)c12 [GSK2177277]
90.8

Supply %Inh value. Item: CC(=O)N1CCN(c2ccc(Nc3nccc(-c4sc(C(C)C)nc4-c4cccc(NS(=O)(=O)c5cccc(Cl)c5)c4)n3)cn2)CC1 [GSK1660437]
0
